Ref: patent US9758492B2

Target: UniProtKB P14902
Sequence (P14902 whole entry): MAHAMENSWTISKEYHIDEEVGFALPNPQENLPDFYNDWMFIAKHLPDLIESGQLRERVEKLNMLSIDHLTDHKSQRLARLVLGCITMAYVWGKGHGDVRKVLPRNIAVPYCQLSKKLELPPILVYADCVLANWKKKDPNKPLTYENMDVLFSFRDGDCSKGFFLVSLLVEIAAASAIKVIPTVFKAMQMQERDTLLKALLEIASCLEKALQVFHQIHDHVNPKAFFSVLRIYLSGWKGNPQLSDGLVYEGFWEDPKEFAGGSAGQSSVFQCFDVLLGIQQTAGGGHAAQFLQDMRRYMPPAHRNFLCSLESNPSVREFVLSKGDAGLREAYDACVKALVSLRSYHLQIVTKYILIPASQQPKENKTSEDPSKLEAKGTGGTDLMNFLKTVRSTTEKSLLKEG
Assay: LLE_IDO_ABS_DR (IDO assay)
pIC50: −log10 of the molar value.
Decision: pIC50 compared against 6; not below it gives TRUE, below it gives FALSE.

# COMPOUND, ASSAY_SYSTEM, CLASS
records = [
    ("CC(C)CN(CCC1CC1)c1ccc(-c2ccccc2C(=O)O)cc1NC(=O)Nc1ccccc1F", "UniProtKB P14902", "TRUE"),
    ("O=C(Nc1cc(-c2ccccc2-c2nnn[nH]2)ccc1N(CCC(F)(F)F)Cc1ccc(C(F)(F)F)cc1)Nc1ccccc1C(F)(F)F", "UniProtKB P14902", "TRUE"),
    ("Cc1ccc(NC(=O)Nc2cc(-c3ccc(Cl)cc3C(=O)O)ccc2N(CC(C)C)CC(C)C)cc1", "UniProtKB P14902", "TRUE"),
    ("Cc1ccc(NC(=O)Nc2cc(-c3ccccc3-c3nnn[nH]3)ccc2N2CCC(F)(F)C2)cc1", "UniProtKB P14902", "FALSE"),
    ("O=C(Nc1ccc(C(F)(F)F)cc1F)Nc1cc(-c2ccccc2-c2nnn[nH]2)ccc1N(CCC(F)(F)F)Cc1ccc(OC(F)(F)F)cc1", "UniProtKB P14902", "TRUE"),
    ("COc1ccc(-c2ccc(N(CCC(F)(F)F)CC3CC3)c(NC(=O)Nc3ccc(C)cc3)c2)cc1C(=O)O", "UniProtKB P14902", "FALSE"),
    ("Cc1ccc(NC(=O)Nc2cc(-c3ccccc3-c3nnn[nH]3)ccc2N2CCC(c3nc(C)no3)C2)cc1 (stereo not shown)", "UniProtKB P14902", "TRUE"),
]
